So I've got a bunch of compounds here, and I need their Renilla luciferase signal values.
tested on: HEK293T (UBE3A T485A transfected, BAR Wnt reporter); test: Renilla luciferase signal (cell health) relative to plate median (fold (linear ratio)); higher = higher Renilla signal; conditions: concentration: 1 uM; 24 h
Whole data set: some 1,100 compounds, median “Renilla luciferase signal (cell health) relative to plate median” near 0.97, cut for the highest 2% near 1.6. The list comes from a sample in which the highest values are over-represented; it also holds close analogues and randomly drawn compounds.
One number for each entry.

Below, 5 compounds whose answers are already recorded.
OCC(CO)(CO)CO [Pentaerythritol]
1.02
CCCCCCCCCCCCCCO [1-Tetradecanol]
0.831
O=c1[nH]c2cc([N+](=O)[O-])c([N+](=O)[O-])cc2[nH]c1=O
1.02
CC(C)CC(C)(O)C#CC(C)(O)CC(C)C (stereo unspecified) [2,4,7,9-Tetramethyl-5-decyne-4,7-diol]
0.919
CCCCCCCCCCCCCCC [Pentadecane]
0.899

Continue with the next compound.
Give the measured Renilla luciferase signal for O=C(O)CCCCC(=O)O [Hexanedioic acid]
0.762

# credit: the supplement of paper PMC9254222
